Below, each of the molecules is paired with its reported Kd value.
- system.name: Matrix-associated proTGFb1 (hLTBP1, hLTBP3)
- experimental.protocol: BLI (OCTET), average over matrix-associated complexes
- Type: binding, human
- test.context: average KD of (B) and (C), read-out: (D) ECM AVRG
Response body: numeric value in nM, unit text excluded.

molecule="Ab21: proTGFβ1 antibody; VH SEQ ID NO: 129, VL SEQ ID NO: 15 (antibody, V domains shown) VH: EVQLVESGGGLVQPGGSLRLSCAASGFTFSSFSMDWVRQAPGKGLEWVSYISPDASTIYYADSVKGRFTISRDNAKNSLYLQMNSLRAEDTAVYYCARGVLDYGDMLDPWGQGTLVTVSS VL: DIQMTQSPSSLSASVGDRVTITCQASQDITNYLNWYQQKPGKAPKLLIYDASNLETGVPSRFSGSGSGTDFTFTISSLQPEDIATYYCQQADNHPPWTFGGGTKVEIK" value_unit=nM value_observed=0.246
molecule="Ab22: proTGFβ1 antibody; VH SEQ ID NO: 130, VL SEQ ID NO: 15 (antibody, V domains shown) VH: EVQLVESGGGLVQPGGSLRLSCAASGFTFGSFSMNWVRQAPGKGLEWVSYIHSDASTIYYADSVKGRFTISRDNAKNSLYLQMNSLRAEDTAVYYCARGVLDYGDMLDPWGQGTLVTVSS VL: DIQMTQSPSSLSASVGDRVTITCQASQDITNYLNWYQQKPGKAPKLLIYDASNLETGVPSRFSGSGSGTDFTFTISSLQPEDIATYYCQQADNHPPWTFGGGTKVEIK" value_unit=nM value_observed=0.324

Alright, here's another molecule for you.
# input Look up and report measured Kd for this entry: Ab24: proTGFβ1 antibody; VH SEQ ID NO: 132, VL SEQ ID NO: 15 (antibody, V domains shown) VH: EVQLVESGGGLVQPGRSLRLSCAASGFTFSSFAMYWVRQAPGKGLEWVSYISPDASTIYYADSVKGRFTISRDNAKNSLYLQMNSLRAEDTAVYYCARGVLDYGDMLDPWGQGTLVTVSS VL: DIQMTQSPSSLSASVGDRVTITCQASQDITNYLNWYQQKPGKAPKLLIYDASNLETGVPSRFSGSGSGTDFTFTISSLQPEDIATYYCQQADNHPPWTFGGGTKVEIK
# output 0.222
